Tested on: Saccharomyces cerevisiae
Method: protein stability index of tFT-peptide fusion (C-terminal peptide) (PSI (0-1 scale)); higher = more stable (slower turnover)
Experimental Conditions: genetic background: wild type; temperature: 30 C
Property Label: protein stability index
Give bare numbers.

Worked set:
{"columns": ["Sequence Data", "Property Label", "Numeric Readout"],
 "data": [
  ["AREVGGRAGRRE", "protein stability index", 0.661],
  ["IGGPIIYTGRLH", "protein stability index", 0.682],
  ["CCMLCVVAWSGV", "protein stability index", 0.359]
]}

Lab note: each sequence below needs its protein stability index filled in.
1. AVSLTLCISSIS
2. KSGVWLWGGGGG
3. CIQRYSTAHPYH
4. MRRAQADRVYRL
5. GGGGGGGGVVVR
6. PHPWTSPPAPPP
7. VRINLLFVWFSR
8. LSLPHPSPLSFS

[0.587, 0.724, 0.679, 0.71, 0.686, 0.698, 0.396, 0.718]

###

Could you please report measured protein stability index for the items listed next?
Tested on: Saccharomyces cerevisiae
Method: protein stability index of tFT-peptide fusion (C-terminal peptide) (PSI (0-1 scale)); higher = more stable (slower turnover)
Experimental Conditions: genetic background: das1 deletion; temperature: 37 C
One number for each entry.

These solved cases illustrate the format of a correct answer.
{"columns": ["Sequence Data", "Target", "protein stability index"],
 "data": [
  ["RLVVSRNFYRLC", "Saccharomyces cerevisiae", 0.723],
  ["PPRPLHPPCRPP", "Saccharomyces cerevisiae", 0.694],
  ["WAFVVCGAVFFW", "Saccharomyces cerevisiae", 0.466]
]}

Below: the item to evaluate.
Give the observed protein stability index of `GVAFGLLVWLLG` for Saccharomyces cerevisiae.
0.531

###

Test system: Saccharomyces cerevisiae
Method: protein stability index of tFT-peptide fusion (C-terminal peptide) (PSI (0-1 scale)); higher = more stable (slower turnover)
Experimental Conditions: genetic background: doa10 deletion; temperature: 30 C
Threshold rule: protein stability index greater than or equal to 0.4 is T; below that, F.

Solved cases (4 shown):
{"columns": ["Sequence Data", "Class"],
 "data": [
  ["VCFWCLYVMFSL", "F"],
  ["RYVFAFRRNYFC", "F"],
  ["APPPVAPAPGSA", "T"],
  ["APPRLPLLSCSQ", "T"]
]}

Now look at this one.
API: above_or_equal(metric=protein stability index, cutoff=0.4) for item `GCLVVVGFFSVF`
F

###

So I've got a bunch of sequences here, and I need their protein stability index values.
Tested on: Saccharomyces cerevisiae
Method: protein stability index of tFT-peptide fusion (C-terminal peptide) (PSI (0-1 scale)); higher = more stable (slower turnover)
Experimental Conditions: genetic background: wild type; temperature: 30 C
One number for each entry.

Answered cases to consult:
{"columns": ["Sequence Data", "protein stability index"],
 "data": [
  ["ILHCVCFGLFHF", 0.614],
  ["FVVFYFFLLFGV", 0.328],
  ["RRRREKEKRSQE", 0.734],
  ["SVMMGVWWSGYR", 0.709]
]}

Count: 2. Required value per item: protein stability index.
1. ALYISLRELACP
2. PSPTPSPPFPAP

1. 0.548
2. 0.721

Count: 4. Required value per item: protein stability index.
1. FCFLAFLKTPKS
2. PPLPPAPLPLPT
3. SCLSLALYASHF
4. LSPPRSAPPPPR

1: 0.58; 2: 0.639; 3: 0.56; 4: 0.699

###

Assign protein stability index to each entry below.
Test system: Saccharomyces cerevisiae
Method: protein stability index of tFT-peptide fusion (C-terminal peptide) (PSI (0-1 scale)); higher = more stable (slower turnover)
Experimental Conditions: genetic background: das1 deletion; temperature: 37 C
Answers are plain numbers.

The examples below pair each entry with its known result.
{"columns": ["Sequence Data", "Numeric Readout"],
 "data": [
  ["VFYWGGVLCGWG", 0.514],
  ["SGPTIRRRLFVH", 0.729],
  ["HMVSWTVVRSLM", 0.76],
  ["TGGGGRVSLGGG", 0.44]
]}

Please give protein stability index, item by item, for the list that follows.
1. GALWVLGVVVGG
2. SLLFLVLFFPLV
3. FFCCFVFVLGFC
4. RGLWAAIPRKCT
5. GYAFPPPHRVRT

0.537
0.55
0.44
0.754
0.729

###

Would you mind telling me the reported protein stability index of each entry?
Tested on: Saccharomyces cerevisiae
Method: protein stability index of tFT-peptide fusion (C-terminal peptide) (PSI (0-1 scale)); higher = more stable (slower turnover)
Experimental Conditions: genetic background: wild type; temperature: 30 C
Answers are plain numbers.

# annotated cases, reported protein stability index shown
{"columns": ["Sequence Data", "Property Label", "Numeric Readout"],
 "data": [
  ["LPLPSPLLPPRP", "protein stability index", 0.712],
  ["DGSKRDWFYNSA", "protein stability index", 0.725],
  ["DECQLCNRDWRG", "protein stability index", 0.719],
  ["VTMQEKTCQLEA", "protein stability index", 0.705]
]}

Report protein stability index for each item below.
1. FWPPLTNLCTLL
2. VLGFGSVPAWIE
3. VRGMGGIGRCVG

1. 0.687
2. 0.776
3. 0.657

###

System: Saccharomyces cerevisiae
Method: protein stability index of tFT-peptide fusion (C-terminal peptide) (PSI (0-1 scale)); higher = more stable (slower turnover)
Experimental Conditions: genetic background: das1 deletion; temperature: 30 C
For each entry below, report its protein stability index value.
Give bare numbers.

{"columns": ["Sequence Data", "protein stability index"],
 "data": [
  ["PTWQIVEDIRNT [PMT3 C-terminal 12 aa]", 0.728],
  ["YVIHLDQIDRDL [YLR269C C-terminal 12 aa]", 0.714],
  ["DENDKVIAIKVV [VPS25 C-terminal 12 aa]", 0.574],
  ["IDNVIISGKDEY [CCT5 C-terminal 12 aa]", 0.703],
  ["HFYDRTNDLTNL [YNL144C C-terminal 12 aa]", 0.736]
]}

Please go through the list and note protein stability index for each sequence.
1. EKKFKEILNIQW [PET112 C-terminal 12 aa]
2. PQGAGRGRGMPM [CCT7 C-terminal 12 aa]
3. NEDWPNESKPLV [GOR1 C-terminal 12 aa]
4. LRSKSRLRGSHT [AHC1 C-terminal 12 aa]
5. HIFEKKIFHTNL [YOL097W-A C-terminal 12 aa]
6. AKDYLLDLAGQA [YBR085C-A C-terminal 12 aa]
7. NIFYQLLLTVNY [YBR013C C-terminal 12 aa]
8. SRILQYKCIFTY [ARP8 C-terminal 12 aa]

0.709
0.69
0.711
0.73
0.706
0.713
0.229
0.517

The following sequences each have a reported value; give each one's protein stability index.
1. NTSRIAKFFNRR [SEC15 C-terminal 12 aa]
2. LLLPITSSLLFI [MIN4 C-terminal 12 aa]

[0.702, 0.618]

###

Tested on: Saccharomyces cerevisiae
Method: protein stability index of tFT-peptide fusion (C-terminal peptide) (PSI (0-1 scale)); higher = more stable (slower turnover)
Experimental Conditions: genetic background: doa10 deletion; temperature: 30 C
Property Label: protein stability index
One number for each entry.

// each sequence listed below needs its protein stability index
1. LSLFCFFLLVLF
2. YLMVSKMSLRIG

1. 0.305
2. 0.296

# return recorded protein stability index for entry `WVVVARIFSVFF`
0.308

###

Tested on: Saccharomyces cerevisiae
Method: protein stability index of tFT-peptide fusion (C-terminal peptide) (PSI (0-1 scale)); higher = more stable (slower turnover)
Experimental Conditions: genetic background: cdc53-1; temperature: 37 C
Property Label: protein stability index

Some sequences with known protein stability index results, for comparison:
{"columns": ["Sequence Data", "protein stability index"],
 "data": [
  ["DRLRSGLSLLLA", 0.682],
  ["FSFCFCFPLSSL", 0.683],
  ["IKERRKVSMKVY", 0.688]
]}

Now take the following sequence into account.
Determine from records and report protein stability index for `AYPAHQLLVSCL`
0.511

###

System: Saccharomyces cerevisiae
Method: protein stability index of tFT-peptide fusion (C-terminal peptide) (PSI (0-1 scale)); higher = more stable (slower turnover)
Experimental Conditions: genetic background: wild type; temperature: 30 C
// f strictly below 0.7 in protein stability index; t otherwise

{"columns": ["Sequence Data", "Class"],
 "data": [
  ["YPPGSPVPPGLP", "f"],
  ["IYSPLSPSTAPA", "f"],
  ["VGRPGGVAQHRG", "t"],
  ["MNVHGHERLRPS", "f"],
  ["PRVRSPLLSPPQ", "f"],
  ["RPPGLIDSTIQP", "f"],
  ["VRLHVPLQRFMK", "t"],
  ["LYVFFRFPSCLS", "f"]
]}

Reported protein stability index reaches at least 0.7 for `VRDGPRCPVACP` ?
f

State whether the measured protein stability index reaches 0.7, counting equality as reaching it, for `SPPPGPAPPMSP`
t

Threshold query (protein stability index >= 0.7) on `VAVGHWGIVPLW`
t

Check this sequence for protein stability index at or above 0.7: `PPHPPPPFPPPP`
t

src = the supplement of paper PMC10724198
